Every entry's value here was drawn from PubChem BioAssay AID1745861.

Listed here: items and their measured IC50.
assay_system: Solute carrier family 22 member 3 (Homo sapiens)
run_description: SLC22A3 transporter inhibition of MPP+ response – HEK293 JumpIn overexpressing cells, impedance, dose response (AID 1745861)
conditions_used: HEK293 JumpIn OCT3, MPP+ uptake, impedance (xCELLigence)

These recorded examples may help you get a feel for the data.
>>> result("C=CC(=O)N1CCC[C@@H](n2nc(-c3ccc(Oc4ccccc4)cc3)c3c(N)ncnc32)C1")
"7900 nM"
>>> result("C[C@]12C[C@H](O)[C@H]3[C@@H](CCC4=CC(=O)CC[C@@]43C)[C@@H]1CC[C@@H]2C(=O)CO")
"1600 nM"
>>> result("C[n+]1ccc(-c2ccccc2)cc1")
"199000 nM"
>>> result("Cc1cn(-c2cc(NC(=O)c3ccc(C)c(Nc4nccc(-c5cccnc5)n4)c3)cc(C(F)(F)F)c2)cn1")
"500 nM"

Could you now consider this next compound?
// sample CCN1/C(=C/c2ccc3ccccc3[n+]2CC)C=Cc2ccccc21 , its IC50 was 400 nM
